System: P. falciparum strains
Test: 3H hypoxanthine incorporation assay of P. falciparum strains in human red blood cells
Format: cell-based, Plasmodium falciparum
Conditions: Plasmodium falciparum, NF54, Erythrocyte, parasite line NF54; read-out: EC50
Measure: EC50

*Q* Give the value of EC50 reported for the following: C[C@H]1[C@@H](O)O[C@@H]2O[C@@]3(C)CC[C@H]4[C@H](C)CC[C@@H]1[C@@]24OO3 [Dihydroartemisinin, dihydroartemisinin]
*A* 0.15 nM
